# Assay method text: Lipophilicity, log D of compound at pH 7.4 by UPLC-MS/MS analysis
# Type: physicochemical
# Conditions: buffer
Hi there, I'd appreciate the recorded logD for every entry that follows.
Answers are plain numbers.

Please state, for each entry, its recorded logD.
1. COC(=O)[C@@H]1CSCc2ccccc2C(=O)OC[C@@H](NC(=O)[C@@H]2CCCN2C(C)=O)CN1
2. COC(=O)[C@H]1CSCc2ccccc2C(=O)OC[C@H](NC(=O)[C@@H]2CCCN2C(C)=O)CN1
3. COC(=O)[C@H]1CSCc2ccccc2C(=O)OC[C@@H](NC(=O)[C@@H]2CCCN2C(C)=O)CN1
4. COC(=O)[C@@H]1CSCc2ccccc2C(=O)OC[C@H](NC(=O)[C@@H]2CCCN2C(C)=O)CN1

1: 0.43; 2: 0.65; 3: 0.6; 4: 0.7

Data credit: ChEMBL document CHEMBL4732270
